# TARGET OF ASSAY: UniProtKB P33261
# Sequence (P33261 whole entry): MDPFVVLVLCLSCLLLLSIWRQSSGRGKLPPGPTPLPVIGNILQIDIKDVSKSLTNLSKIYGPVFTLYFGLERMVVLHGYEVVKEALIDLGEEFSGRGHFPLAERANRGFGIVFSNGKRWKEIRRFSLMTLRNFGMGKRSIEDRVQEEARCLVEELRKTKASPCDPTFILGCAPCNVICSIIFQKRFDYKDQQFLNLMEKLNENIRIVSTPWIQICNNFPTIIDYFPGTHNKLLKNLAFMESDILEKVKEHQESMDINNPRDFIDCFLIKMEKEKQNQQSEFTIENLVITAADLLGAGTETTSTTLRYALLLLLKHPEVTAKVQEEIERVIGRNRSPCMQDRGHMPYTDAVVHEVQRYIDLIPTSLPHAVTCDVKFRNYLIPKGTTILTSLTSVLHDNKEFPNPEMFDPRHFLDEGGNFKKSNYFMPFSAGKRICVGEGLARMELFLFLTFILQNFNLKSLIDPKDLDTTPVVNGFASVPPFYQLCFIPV
# TEST DESCRIPTION: Cytochrome panel assay with activity outcomes. Panel member name: p450-cyp2c19 Compounds with AC50 equal or less than 10 uM are considered active
# Type: functional
# STATED CONDITIONS: read-out: AC50
Below is a list of entries, each paired with its recorded AC50 value.
MEASURED QUANTITY: AC50

- CC1=NN(C(=O)c2ccncc2)C(=O)[C@@H]1/N=N\c1ccc2ccccc2c1: 3.98 µM (inconclusive)
- O=C(Oc1ccccc1)N1CCC2(CC1)CN(C(c1ccccc1)c1ccccc1)C2: 31.6 µM (inconclusive)
- Cc1nc2cnc(Oc3cccc(Cl)c3)nc2n(CCc2ccccc2)c1=O: 7.94 µM (inconclusive)
- CCn1c(SCC(=O)Nc2sc3c(c2C#N)CCC(C(C)(C)C)C3)nnc1-c1ccco1 (stereo not given): 20 µM (inconclusive)
- CCN(CC)CCOC(=O)c1c(C)n(C)c2ccc(OC)cc12: 39.8 µM (inconclusive)

* * *

Below is a list of entries, each paired with its recorded IC50 value.
# TARGET OF ASSAY: Calpain-2 catalytic subunit (Sus scrofa, UniProt P43367)
# Sequence (P43367 whole entry): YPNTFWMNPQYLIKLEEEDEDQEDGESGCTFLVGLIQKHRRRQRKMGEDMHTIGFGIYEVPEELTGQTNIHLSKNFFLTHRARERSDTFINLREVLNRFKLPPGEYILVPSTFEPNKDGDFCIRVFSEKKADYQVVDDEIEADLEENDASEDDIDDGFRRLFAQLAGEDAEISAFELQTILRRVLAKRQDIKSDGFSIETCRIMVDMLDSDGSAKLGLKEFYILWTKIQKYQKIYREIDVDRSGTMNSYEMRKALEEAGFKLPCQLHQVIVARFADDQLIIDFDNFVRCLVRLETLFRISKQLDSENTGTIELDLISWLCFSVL
# TEST DESCRIPTION: m-calpain protease blockers, concentration series – biochemical, fluorogenic peptide substrate, dose response (AID 1420)
# Format: functional
MEASURED QUANTITY: IC50

• CC(NC(=O)c1ccccc1)c1ccc(F)cc1 (stereo unspecified) = > 50 µM (not active)
• COc1ccc(/C(=C/Nc2cccc(Br)c2)C(C)=O)cc1OC = 9 µM (not active)
• O=C(COC(=O)CCCSc1nc2ccccc2[nH]1)Nc1ccc(Oc2ccccc2)cc1 = 7.16 µM (not active)
• O=C1CC2C(=O)NCCN2C(NC(=O)c2ccc(Cl)cc2)=N1 (stereo unspecified) = 0.931 µM (not active)
• CN1CCN(C2=CC3=CC(=C(C#N)C#N)CCC3CC2)CC1 (stereo unspecified) = 13.9 µM (not active)
• CCN(c1ccc(OCC(=O)OCC(=O)Nc2ccc(F)c(F)c2F)cc1)S(=O)(=O)c1ccccc1 = 3.96 µM (not active)
• O=C(Nc1ccc2oc(=O)ccc2c1)c1ccc(-c2cccc(Cl)c2)o1 = 11.6 µM (not active)
• O=[N+]([O-])c1ccc(NCc2ccc(Cl)cc2)nc1 = 12.6 µM (not active)
• N#C/C(=C(/O)CN1C(=O)c2ccccc2C1=O)c1nc2ccccc2[nH]1 = 2.28 µM (not active)
• C=CCn1c(CCCNC(=O)c2ccccc2OC)nc2ccccc21 = 13.2 µM (not active)
• O=C(COn1nnc2ccc(Cl)cc21)NC12CC3CC(CC(C3)C1)C2 = > 50 µM (not active)
